- System: SNB-78
- ASSAY METHOD TEXT: NCI tumour cell line growth inhibition, 48 h
The source made the active and inactive calls. Cut-off read from the data, not from the text of the source: active = GI50 up to about 1.1 µM and inactive = higher.
PROPERTY MEASURED: GI50

Here's what some known entries look like.
Cc1cccc(C)c1NC(=O)C1C(=O)N(c2c(C)cccc2C)C(=O)/C1=N\NC(N)=S (stereo not given); > 100 µM (inactive)
CC(C)(Oc1ccc(/C=C/C(=O)c2ccccc2)cc1)C(=O)Nc1c(Cl)cccc1Cl; > 10 µM (inactive)
COc1ccc2c(c1)[n+]([O-])c(-c1ccccc1Cl)c(N)[n+]2[O-]; > 100 µM (inactive)

API: the following record is the query input.
Provide only the value of recorded GI50 for Cn1c(O)c(C(=O)Nc2ccc([N+](=O)[O-])cc2)c(=O)n(C)c1=S
2.18 µM (inactive)

---

- Test system: NCI-H522
- ASSAY METHOD TEXT: NCI tumour cell line growth inhibition, 48 h
The source made the active and inactive calls. No stated cut-off is given here; in the data, active = GI50 up to about 1.1 µM and inactive = higher. Starred links: 1 amine or outer side, 2 acyl side, 3 side chain; linkers in the order of their positions; H or OH if unused. Positions of bridges follow the written chain, without caps; N, C: chain ends. Non-standard residues stand in square brackets, D forms with d. Residues, ends and D or L forms follow the SMILES beside them. Chains are numbered I, II in the order given. Actinocin(1to9) = Cc1c2oc3c(C)ccc(C(=O)[*:2])c3nc-2c(C(=O)[*:1])c(N)c1=O; aThr = C[C@H](O)[C@H](N)C(=O)O; NMeV = CN[C@H](C(=O)O)C(C)C; Sar = CNCC(=O)O
Outcomes you can answer with include only these: YES = active, NO = inactive

# count of solved cases: 6
COc1ccc(-c2cc(-c3ccccc3)n(C3OCC(OC(C)=O)C(OC(C)=O)C3OC(C)=O)c(=S)c2C#N)cc1 (centres undefined); NO
O=C1c2ccccc2-c2oc(=O)c3ccccc3c21; YES
CCN(CC)CCCC(C)Nc1ccnc(/C=C/c2ccc(Cl)cc2)c1 (centres undefined); NO
Cn1/c(=N\S(=O)(=O)c2ccccc2)[nH]c2ccccc21; NO
CCCCCCCCCCCCCCCCOCC(Cl)COP(=O)(O)OP(=O)(O)OCC1OC(n2cc(C)c(=O)[nH]c2=O)CC1O (centres undefined); NO
Cc1c2oc3c(C)ccc(C(=O)N[C@@H]4C(=O)N[C@H](C(C)C)C(=O)N5CCC[C@H]5C(=O)N(C)CC(=O)N(C)[C@@H](C(C)C)C(=O)O[C@H]4C)c3nc-2c(C(=O)N[C@@H]2C(=O)N[C@H](C(C)C)C(=O)N3CCC[C@H]3C(=O)N(C)CC(=O)N(C)[C@@H](C(C)C)C(=O)O[C@H]2C)c(N)c1=O (I: [aThr][dV]P[Sar][NMeV] / II: [aThr][dV]P[Sar][NMeV]; ester I:1-I:C, II:1-II:C; linker I:N-II:N via Actinocin(1to9)); YES

# outcome recorded in this test, key = C=CO/N=[N+](\[O-])N(CC)CC
NO

# outcome recorded in this test, key = O=C1C(Cl)=CC2(C=C1Cl)CCNC1=C2C(=O)c2nc[nH]c2C1=O
NO

# outcome recorded in this test, key = COc1cc(/C=C\c2ccc(O)cc2)cc(OC)c1OC
NO

# outcome recorded in this test, key = Cc1sc(C)c2c1C(=O)CC2N (centres undefined)
NO

# outcome recorded in this test, key = CCCCCCCCCCCCCC(=O)O[C@H]1CC[C@H](NC(=O)[C@H](OC)[C@H](O)[C@@H](O)[C@H](O)/C=C/C(C)C)C(=O)NC1 [BENGAMIDE A]
YES

# outcome recorded in this test, key = COc1ccc(/C=N/N=C(\N)NO)c(O)c1
NO

# outcome recorded in this test, key = O=C(O)c1ccc(C(O)(c2ccccc2)c2ccccc2)cc1
NO

# outcome recorded in this test, key = COc1cc(/C=C/C(=O)c2cccc3ccccc23)cc(OC)c1OC
NO

# outcome recorded in this test, key = Nc1ncnc2c(C3OC(CO)C(O)C3O)scc12 (centres undefined)
YES

---

- System: NCI-H522
- ASSAY METHOD TEXT: NCI tumour cell line growth inhibition, 48 h
The source made the active and inactive calls. No stated cut-off is given here; in the data, active = GI50 up to about 1.1 µM and inactive = higher.
PROPERTY MEASURED: GI50

Here's what some known entries look like.
O=c1[nH]c(=O)n(CCOCP(=O)(O)O)nc1Br; > 100 µM (inactive)
Cc1cc(=O)[nH]c(-n2[nH]c3c(c2=O)CCCC3)n1; > 100 µM (inactive)

API: the following record is the query input.
Provide only the value of recorded GI50 for CCOC(=O)c1cc(C2=CCNC2=O)c(-c2cc(C)no2)[nH]1
16.7 µM (inactive)

---

- Test system: NCI-H23
- ASSAY METHOD TEXT: NCI tumour cell line growth inhibition, 48 h
The source made the active and inactive calls. No stated cut-off is given here; in the data, active = GI50 up to about 1.1 µM and inactive = higher.
Outcomes you can answer with include only these: 1.0 (active), 0.0 (inactive)

O=C(O)c1ccc(OCc2nc3cc(C(F)(F)F)ccc3nc2-c2ccccc2)cc1; 0.0
O=C(O)CCC(NC(=O)c1ccc(Nc2nc3cc(C(F)(F)F)ccc3nc2-c2ccccc2)cc1)C(=O)O (stereo not given); 0.0
Cc1c(C2Cc3ccccc3N2C(=O)/C=C\C(=O)O)c2ccccc2n1C (stereo not given); 0.0

Here is the next item to consider.
# outcome recorded in this test, key = CCNC(=O)Nc1ccccn1
0.0

---

- System: SF-268
- ASSAY METHOD TEXT: NCI tumour cell line growth inhibition, 48 h
Calls of active or inactive are those of the source. Rule as the data show it: active = GI50 up to about 1.1 µM and inactive = higher.
Outcomes you can answer with include only these: 1 (active), 0 (inactive)

# count of solved cases: 8
N#CC(C#N)=Cc1ccc2c(c1)OC(Cl)O2 (stereo not drawn); 0
CSc1nnnc2ccccc12; 0
O=C(O)c1ccc(OCc2nc3cc(C(F)(F)F)ccc3nc2-c2ccccc2)cc1; 0
CCOc1ccccc1/C=C1\NC(=O)N(/C=C2\C(=O)Oc3ccccc3C2=O)C1=O; 0
Cn1cc(C2NC(=O)c3ccccc3N2)c2ccccc21 (stereo not drawn); 0
C/C(=N/OCCC(=O)O)C1CC1; 0
COc1ccc2c(c1)-c1nc(=S)n(CCCN(C)C)c3ccc([N+](=O)[O-])c(c13)N2; 1
C=CCOc1ccc(C2(c3ccc(OCC=C)cc3)C(=O)Nc3ccccc32)cc1; 0

# outcome recorded in this test, key = CCCC(CC)c1cc(O)c(O)cc1C(CC)CCC (stereo not drawn)
0

# outcome recorded in this test, key = C=CC1(C)CC(=O)C2(O)C(C)(O1)C(OC(C)=O)C(O)C1C(C)(C)CCC(O)C12C (stereo not drawn)
0

# outcome recorded in this test, key = CC1CN=C(Nc2ccc(F)cc2F)S1 (stereo not drawn)
0

# outcome recorded in this test, key = O=P(O)(O)C(NCC(O)CN1CCOCC1)P(=O)(O)O (stereo not drawn)
0

# outcome recorded in this test, key = CC(C#N)(NO)C(C)(C#N)NO (stereo not drawn)
0

# outcome recorded in this test, key = CC(C)/C(Cl)=N/OC(=O)Nc1ccc(Br)cc1
0

# outcome recorded in this test, key = [O-]c1c[n+](CCCC[n+]2cc([O-])on2)no1
0

# outcome recorded in this test, key = O=C1C2C=CC(C2)C(c2ccc(O)cc2)N1O (stereo not drawn)
0

---

- Test system: LXFL 529
- ASSAY METHOD TEXT: NCI tumour cell line growth inhibition, 48 h
The source made the active and inactive calls. Cut-off read from the data, not from the text of the source: active = GI50 up to about 1.1 µM and inactive = higher.
PROPERTY MEASURED: GI50

Oc1cc(Cl)ncn1; > 100 µM (inactive)
Cc1ccccc1-c1c(N)nc(N)nc1C(=O)Nc1nccs1; > 100 µM (inactive)
CC1(C)S[C@H](c2ccccc2C(=O)O)N[C@@H]1CC(=O)O; > 100 µM (inactive)
Cc1c(C(=O)/C=C/c2ccc(N(C)C)cc2)c(=O)n(-c2ccccc2)n1C; > 100 µM (inactive)
O/N=C1/C(=C/c2ccc(Cl)cc2)CCCC1C(NO)c1ccc(Cl)cc1 (centres undefined); 25.3 µM (inactive)

API: the following record is the query input.
Provide only the value of recorded GI50 for CCOC(=O)c1nc2ccc([N+](=O)[O-])cc2c2c1CCO2
> 100 µM (inactive)

---

GI50 values, listed per item
- System: A498
- ASSAY METHOD TEXT: NCI tumour cell line growth inhibition, 48 h
Activity calls are given as the source filed them. Cut-off read from the data, not from the text of the source: active = GI50 up to about 1.1 µM and inactive = higher.

Cc1nc(Nc2ccc(Cl)cc2)sc1C(=O)NNC(=O)C(=O)NN; 15.7 µM (inactive)
CC12CCC(CC1)C(C)(C)O2; 0.923 µM (active)

API: the following record is the query input.
Provide only the value of recorded GI50 for Nc1ccc2nc3ccc(=O)cc-3n(-c3ccccc3)c2c1
32.8 µM (inactive)

---

- System: SK-MEL-5
- ASSAY METHOD TEXT: NCI tumour cell line growth inhibition, 48 h
Calls of active or inactive are those of the source. Cut-off read from the data, not from the text of the source: active = GI50 up to about 1.1 µM and inactive = higher.
PROPERTY MEASURED: GI50

Here's what some known entries look like.
C=C[C@@]1(C)CC2CC[C@]3(C)C(C)=CC(=O)CC3[C@]2(C)CC1O (some centres not stated); > 100 µM (inactive)
Nc1cc(C(=O)NC2C3CC4CC(C3)CC2C4)nc(S)n1 (configuration not stated); > 100 µM (inactive)
CC1=CC(=O)N2[C@H](OC[C@@H]2C(C)C)O1; > 100 µM (inactive)
Clc1ccc(-c2c(C3=NCCCN3)nnn2-c2ccc(Cl)cc2)cc1; 17.7 µM (inactive)
NCCCc1nonc1C(=O)O; > 100 µM (inactive)
COc1cc(/C=C\c2ccc(O)cc2)cc(OC)c1OC; 1.18 µM (inactive)
Cc1ccccc1-c1c(N)nc(N)nc1C(=O)Nc1nccs1; > 100 µM (inactive)
COc1ccc(/C=N/N=C(\N)NO)c(O)c1; 3.53 µM (inactive)
CC(=O)C(=[N+]=[N-])C(=O)N1CCOC1=O; > 10 µM (inactive)
O=C1Nc2ccccc2/C1=N/N=c1\cccc[nH]1; 40.4 µM (inactive)

API: the following record is the query input.
Enter measured GI50, system SK-MEL-5, for the compound shown: O=P(O)(O)C(NCC(O)CN1CCOCC1)P(=O)(O)O (configuration not stated)
> 100 µM (inactive)
